experimental_target: T1, rhesus CD11a (rhesus) (UniProt H9Z8N3)
T1 sequence: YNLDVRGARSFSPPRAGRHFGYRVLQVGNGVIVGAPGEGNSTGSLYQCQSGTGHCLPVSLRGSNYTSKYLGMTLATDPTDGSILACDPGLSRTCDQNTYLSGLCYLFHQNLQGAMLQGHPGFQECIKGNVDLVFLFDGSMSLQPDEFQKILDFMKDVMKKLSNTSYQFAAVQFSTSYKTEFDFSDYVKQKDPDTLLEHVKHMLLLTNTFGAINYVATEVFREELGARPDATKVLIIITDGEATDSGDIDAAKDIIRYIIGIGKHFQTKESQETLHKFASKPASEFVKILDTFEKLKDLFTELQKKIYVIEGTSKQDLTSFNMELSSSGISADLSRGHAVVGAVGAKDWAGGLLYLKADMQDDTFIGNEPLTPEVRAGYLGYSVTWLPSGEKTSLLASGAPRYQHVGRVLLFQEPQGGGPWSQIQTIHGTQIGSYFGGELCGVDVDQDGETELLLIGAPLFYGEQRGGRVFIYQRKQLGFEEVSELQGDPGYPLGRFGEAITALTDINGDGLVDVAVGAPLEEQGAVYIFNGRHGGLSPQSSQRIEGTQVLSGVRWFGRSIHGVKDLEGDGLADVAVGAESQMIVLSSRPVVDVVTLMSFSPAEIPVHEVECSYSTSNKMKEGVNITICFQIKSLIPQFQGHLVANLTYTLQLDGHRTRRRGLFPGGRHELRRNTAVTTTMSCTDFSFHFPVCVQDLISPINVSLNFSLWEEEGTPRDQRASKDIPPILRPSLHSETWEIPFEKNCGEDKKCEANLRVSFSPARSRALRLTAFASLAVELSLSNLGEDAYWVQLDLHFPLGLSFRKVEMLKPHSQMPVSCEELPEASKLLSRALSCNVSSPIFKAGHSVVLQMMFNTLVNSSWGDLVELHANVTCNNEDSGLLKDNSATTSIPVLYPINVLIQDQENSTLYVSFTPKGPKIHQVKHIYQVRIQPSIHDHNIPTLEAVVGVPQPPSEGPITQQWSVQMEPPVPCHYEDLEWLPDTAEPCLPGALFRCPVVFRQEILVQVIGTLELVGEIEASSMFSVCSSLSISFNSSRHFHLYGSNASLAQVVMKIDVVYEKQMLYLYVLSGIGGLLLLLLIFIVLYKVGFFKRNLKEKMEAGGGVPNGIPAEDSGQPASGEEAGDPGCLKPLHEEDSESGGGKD
protocol_notes: binding to rhesus peripheral blood lymphocytes
Item-by-item account of Var.EC50/HuIgG1 EC50

binder | Var.EC50/HuIgG1 EC50
ArgH58Ala variant IgG1 (antibody, V domains shown) VH: EVQLVESGGGLVQPGGSLRLSCAASGYSFTGHWMNWVRQAPGKGLEWVGMIHPSDSETAYNQKFKDRFTISVDKSKNTLYLQMNSLRAEDTAVYYCARGIYFYGTTYFDYWGQGTLVTVSS VL: DIQMTQSPSSLSASVGDRVTITCRASKTISKYLAWYQQKPGKAPKLLIYSGSTLQSGVPSRFSGSGSGTDFTLTISSLQPEDFATYYCQQHNEYPLTFGQGTKVEIK | 3.3
AspH65Ala variant IgG1 (antibody, V domains shown) VH: EVQLVESGGGLVQPGGSLRLSCAASGYSFTGHWMNWVRQAPGKGLEWVGMIHPSDSETRYNQKFKARFTISVDKSKNTLYLQMNSLRAEDTAVYYCARGIYFYGTTYFDYWGQGTLVTVSS VL: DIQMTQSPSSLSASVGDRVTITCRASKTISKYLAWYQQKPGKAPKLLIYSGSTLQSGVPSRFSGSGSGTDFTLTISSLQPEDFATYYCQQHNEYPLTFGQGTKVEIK | 1.1
SerH53Ala variant IgG1 (antibody, V domains shown) VH: EVQLVESGGGLVQPGGSLRLSCAASGYSFTGHWMNWVRQAPGKGLEWVGMIHPADSETRYNQKFKDRFTISVDKSKNTLYLQMNSLRAEDTAVYYCARGIYFYGTTYFDYWGQGTLVTVSS VL: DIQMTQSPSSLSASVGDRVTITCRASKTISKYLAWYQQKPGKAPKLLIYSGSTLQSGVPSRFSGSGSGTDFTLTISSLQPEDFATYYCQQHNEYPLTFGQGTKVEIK | 0.7

The values you see were collected from patent EP1516629B1.
